System: MDR1 (G1199A variant)
Assay: in vitro
Settings: human, HEK293 cells recombinantly expressing MDR1 G1199A, EC50 for cell growth inhibition, HEK - MDR1 G1199A; 2 months; 72 hours
measured-parameter: EC50 at 72 h (nM)
Just the number please, in nM, no unit attached.

// EC50 at 72 h lookup, key: CC[C@]1(O)C[C@H]2CN(CCc3c([nH]c4ccccc34)[C@@](C(=O)OC)(c3cc4c(cc3OC)N(C=O)[C@H]3[C@@](O)(C(=O)OC)[C@H](OC(C)=O)[C@]5(CC)C=CCN6CC[C@]43[C@@H]65)C2)C1
860

---

Entries and their measured Rate of transfer dQ/dt ± s.d., B → A follow.
Test system: LLC-PK1 control cells; note: unit not given here
Details: protease inhibitor + GF120918 (1 μM)
Hey, just send me the number, nothing else.

Before answering, review these 2 worked examples.
- molecular-string: "CC(C)(C)NC(=O)[C@@H]1CN(Cc2cccnc2)CCN1C[C@@H](O)C[C@@H](Cc1ccccc1)C(=O)N[C@H]1c2ccccc2C[C@H]1O"
  Rate of transfer dQ/dt ± s.d., B → A: 5.99
- molecular-string: "CC(C)CN(C[C@@H](O)[C@H](Cc1ccccc1)NC(=O)O[C@H]1CCOC1)S(=O)(=O)c1ccc(N)cc1"
  Rate of transfer dQ/dt ± s.d., B → A: 10.2

Need Rate of transfer dQ/dt ± s.d., B → A, item CC(C)(C)NC(=O)[C@@H]1C[C@@H]2CCCC[C@@H]2CN1C[C@@H](O)[C@H](Cc1ccccc1)NC(=O)[C@H](CC(N)=O)NC(=O)c1ccc2ccccc2n1
7.36

Next compound: CC(C)c1nc(CN(C)C(=O)N[C@H](C(=O)N[C@@H](Cc2ccccc2)C[C@H](O)[C@H](Cc2ccccc2)NC(=O)OCc2cncs2)C(C)C)cs1
9.60

---

EC50 for assorted compounds
Tested on: recombinant MDR11199 LLC-PK1 cells
Assay: Cytotoxic drug sensitivity assay (3H-thymidine)
Format: cell-based, porcine
Conditions: Sus scrofa, 72 h; MDR11199 LLC-PK1 cells; 3 days with drug
Your answer should be a plain number; it is taken to be in nM.

# annotated cases, reported EC50 shown
- molecular-string: "CC[C@]1(O)C[C@H]2CN(CCc3c([nH]c4ccccc34)[C@@](C(=O)OC)(c3cc4c(cc3OC)N(C=O)[C@H]3[C@@](O)(C(=O)OC)[C@H](OC(C)=O)[C@]5(CC)C=CCN6CC[C@]43[C@@H]65)C2)C1"
  system: "recombinant MDR11199 LLC-PK1 cells"
  EC50, nM: 3.41
- molecular-string: "COc1cccc2c1C(=O)c1c(O)c3c(c(O)c1C2=O)C[C@@](O)(C(=O)CO)C[C@@H]3O[C@H]1C[C@H](N)[C@H](O)[C@H](C)O1"
  system: "recombinant MDR11199 LLC-PK1 cells"
  EC50, nM: 120

Find the recorded EC50 belonging to CC[C@]1(O)C[C@@H]2CN(CCc3c([nH]c4ccccc34)[C@@](C(=O)OC)(c3cc4c(cc3OC)N(C)[C@H]3[C@@](O)(C(=O)OC)[C@H](OC(C)=O)[C@]5(CC)C=CCN6CC[C@]43[C@@H]65)C2)C1 and report it.
15.7

---

Test system: LLC-PK1 control cells; note: unit not given here
Settings: protease inhibitor + GF120918 (1 μM)
measured-parameter: Rate of transfer dQ/dt ± s.d., A → B
Quick one: just the number, no unit, thanks!

- molecular-string: "Cc1cccc(C)c1OCC(=O)N[C@@H](Cc1ccccc1)[C@@H](O)C[C@H](Cc1ccccc1)NC(=O)[C@H](C(C)C)N1CCCNC1=O"
  result-number: 8.48
- molecular-string: "CC(C)CN(C[C@@H](O)[C@H](Cc1ccccc1)NC(=O)O[C@H]1CCOC1)S(=O)(=O)c1ccc(N)cc1"
  result-number: 10.8
- molecular-string: "CC(C)(C)NC(=O)[C@@H]1CN(Cc2cccnc2)CCN1C[C@@H](O)C[C@@H](Cc1ccccc1)C(=O)N[C@H]1c2ccccc2C[C@H]1O"
  result-number: 4.26
- molecular-string: "CC(C)(C)NC(=O)[C@@H]1C[C@@H]2CCCC[C@@H]2CN1C[C@@H](O)[C@H](Cc1ccccc1)NC(=O)[C@H](CC(N)=O)NC(=O)c1ccc2ccccc2n1"
  result-number: 3.48

Which measured Rate of transfer dQ/dt ± s.d., A → B belongs to CC(C)c1nc(CN(C)C(=O)N[C@H](C(=O)N[C@@H](Cc2ccccc2)C[C@H](O)[C@H](Cc2ccccc2)NC(=O)OCc2cncs2)C(C)C)cs1 , tested on LLC-PK1 control cells?; note: unit not given here
6.46
